Sourced from patent EP4588489A1

Target: T1, TROP2 (UniProt P09758 27-323, limits assumed)
T1 sequence (looked up): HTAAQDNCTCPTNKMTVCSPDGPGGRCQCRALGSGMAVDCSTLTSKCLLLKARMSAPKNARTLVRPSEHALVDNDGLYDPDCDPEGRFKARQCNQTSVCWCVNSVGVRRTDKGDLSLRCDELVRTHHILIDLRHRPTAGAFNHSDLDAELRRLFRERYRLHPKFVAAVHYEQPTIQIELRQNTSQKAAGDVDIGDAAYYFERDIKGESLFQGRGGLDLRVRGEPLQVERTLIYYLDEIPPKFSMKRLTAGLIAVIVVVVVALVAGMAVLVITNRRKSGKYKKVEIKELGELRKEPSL
Test: cell-based or functional assay
// values below are reported EC50(nM), inhibition of BxPC-3 cell proliferation
quantity: EC50(nM), inhibition of BxPC-3 cell proliferation

{"columns": ["binder", "value measured"],
 "data": [
  ["hRS7-CPD1-NC-D4 (antibody, human IgG1, kappa, V domains shown, linker-drug CPD1 on cysteines of reduced interchain disulfides; label D4) VH: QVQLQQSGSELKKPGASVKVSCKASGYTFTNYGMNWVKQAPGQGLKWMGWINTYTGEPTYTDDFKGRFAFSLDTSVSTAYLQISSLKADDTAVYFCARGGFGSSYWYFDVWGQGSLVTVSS VL: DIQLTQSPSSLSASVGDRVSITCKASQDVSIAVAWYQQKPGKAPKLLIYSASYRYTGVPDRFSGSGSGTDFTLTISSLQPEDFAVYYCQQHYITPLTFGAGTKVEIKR", 0.468],
  ["hRS7-CPD5-NC-D4 (antibody, human IgG1, kappa, V domains shown, linker-drug CPD5 on cysteines of reduced interchain disulfides; label D4) VH: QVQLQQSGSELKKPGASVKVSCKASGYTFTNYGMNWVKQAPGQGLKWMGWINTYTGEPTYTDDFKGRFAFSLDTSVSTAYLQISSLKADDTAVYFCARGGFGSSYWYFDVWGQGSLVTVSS VL: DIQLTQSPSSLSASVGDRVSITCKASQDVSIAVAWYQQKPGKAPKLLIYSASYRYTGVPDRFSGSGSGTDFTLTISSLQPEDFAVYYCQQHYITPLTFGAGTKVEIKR", 0.478],
  ["DXD (deruxtecan)-conjugated sacituzumab (hRS7-DXD) (antibody, human IgG1, kappa, V domains shown, deruxtecan (DXD) on cysteines of reduced interchain disulfides; label D4) VH: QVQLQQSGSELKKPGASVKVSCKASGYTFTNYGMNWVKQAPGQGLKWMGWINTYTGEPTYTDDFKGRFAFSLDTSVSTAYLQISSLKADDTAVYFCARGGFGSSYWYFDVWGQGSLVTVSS VL: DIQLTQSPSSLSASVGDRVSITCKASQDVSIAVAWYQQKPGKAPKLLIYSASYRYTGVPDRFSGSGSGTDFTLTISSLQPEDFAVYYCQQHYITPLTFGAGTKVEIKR", 0.38],
  ["hRS7-CPD2-NC-D4 (antibody, human IgG1, kappa, V domains shown, linker-drug CPD2 on cysteines of reduced interchain disulfides; label D4) VH: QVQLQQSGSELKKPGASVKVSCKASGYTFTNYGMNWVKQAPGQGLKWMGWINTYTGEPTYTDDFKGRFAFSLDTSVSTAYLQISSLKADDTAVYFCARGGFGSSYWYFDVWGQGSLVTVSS VL: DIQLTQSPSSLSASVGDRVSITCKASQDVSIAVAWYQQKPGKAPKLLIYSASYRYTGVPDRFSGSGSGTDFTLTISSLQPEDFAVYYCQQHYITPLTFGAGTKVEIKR", 0.327]
]}
